# Protocol Notes: Ganetespib pharmacokinetics in plasma after STA-1474 infusion (LC-MS/MS)
# Assay type: in vivo, dogs
# Condition Info: dog, plasma, iv, 9.5 mg/kg, STA-9090 in plasma; STA-1474 9.5 mg/kg, 1 h infusion, once weekly; mean, day 1
Measure: Cmax (ng/mL)
Please respond with the number in ng/mL and leave the unit unwritten.

**Query** Please give the documented Cmax of CC(C)c1cc(-c2n[nH]c(=O)n2-c2ccc3c(ccn3C)c2)c(O)cc1O
**Result** 3980

----------
# Protocol Notes: Ganetespib pharmacokinetics in plasma after STA-1474 infusion (LC-MS/MS)
# Format: in vivo, dogs
# Condition Info: dog, iv; STA-9090 in plasma; STA-1474 9.5 mg/kg, 1 h infusion, once weekly; mean, day 1
Measure: half-life
Numeric answer plus unit only.

**Query** Please give the documented half-life of CC(C)c1cc(-c2n[nH]c(=O)n2-c2ccc3c(ccn3C)c2)c(O)cc1O [ganetespib]
**Result** 336 min

----------
# Protocol Notes: Ganetespib pharmacokinetics in plasma after STA-1474 infusion (LC-MS/MS)
# Format: in vivo, dogs
# Condition Info: dog, plasma, iv, 5 mg/kg, STA-9090 in plasma; STA-1474 5 mg/kg, 1 h infusion, twice weekly; mean, day 1
# Experimental: Plasma samples were collected on day 1 and day 22 of therapy at the specified intervals: before and after dosing at 30, 60, 90, 120, 180, 300 (5 hr), 540 (9 hr), and 1440 (24 hr) minutes relative to the start of dosing. […] Plasma concentrations of ganetespib were determined using a qualified liquid chromatography tandem mass spectrometry (LC-MS/MS) method. […] Quantitation was achieved by MS/MS detection in positive ion mode by multiple reaction monitoring. […]
Measure: AUC(0-t) (ng·h/mL)
Please respond with the number in ng·h/mL and leave the unit unwritten.

**Query** Please give the documented AUC(0-t) of CC(C)c1cc(-c2n[nH]c(=O)n2-c2ccc3c(ccn3C)c2)c(O)cc1O
**Result** 5010

----------
# Protocol Notes: Ganetespib pharmacokinetics in plasma after STA-1474 infusion (LC-MS/MS)
# Format: in vivo, dogs
# Condition Info: dog, plasma, iv, 5 mg/kg, STA-9090 in plasma; STA-1474 5 mg/kg, 1 h infusion, twice weekly; mean, day 1
Measure: Cmax (ng/mL)
Please respond with the number in ng/mL and leave the unit unwritten.

**Query** Please give the documented Cmax of CC(C)c1cc(-c2n[nH]c(=O)n2-c2ccc3c(ccn3C)c2)c(O)cc1O
**Result** 3420

----------
# Protocol Notes: Ganetespib pharmacokinetics in plasma after STA-1474 infusion (LC-MS/MS)
# Assay type: in vivo, dogs
# Condition Info: dog, plasma, iv, 9.5 mg/kg, STA-9090 in plasma; STA-1474 9.5 mg/kg, 1 h infusion, once weekly; mean, day 1
Measure: AUC(0-t) (ng·h/mL)
Please respond with the number in ng·h/mL and leave the unit unwritten.

**Query** Please give the documented AUC(0-t) of CC(C)c1cc(-c2n[nH]c(=O)n2-c2ccc3c(ccn3C)c2)c(O)cc1O [ganetespib]
**Result** 5700

----------
# Protocol Notes: Ganetespib pharmacokinetics in plasma after STA-1474 infusion (LC-MS/MS)
# Assay type: in vivo, dogs
# Condition Info: dog, plasma, iv, 9.5 mg/kg, STA-9090 in plasma; STA-1474 9.5 mg/kg, 1 h infusion, once weekly; mean, day 1
Measure: Tmax (min)
Please respond with the number in min and leave the unit unwritten.

**Query** Please give the documented Tmax of CC(C)c1cc(-c2n[nH]c(=O)n2-c2ccc3c(ccn3C)c2)c(O)cc1O
**Result** 42

----------
# Protocol Notes: Ganetespib pharmacokinetics in plasma after STA-1474 infusion (LC-MS/MS)
# Format: in vivo, dogs
# Condition Info: dog, plasma, iv, 9.5 mg/kg, STA-9090 in plasma; STA-1474 9.5 mg/kg, 8 h infusion, once weekly; mean, day 1
Measure: Tmax (h)
Please respond with the number in h and leave the unit unwritten.

**Query** Please give the documented Tmax of CC(C)c1cc(-c2n[nH]c(=O)n2-c2ccc3c(ccn3C)c2)c(O)cc1O
**Result** 5.7

----------
# Protocol Notes: Ganetespib pharmacokinetics in plasma after STA-1474 infusion (LC-MS/MS)
# Type: in vivo, dogs
# Condition Info: dog, plasma, intravenous; range over the three dosing regimens of STA-1474
Measure: AUC

**Query** Please give the documented AUC of CC(C)c1cc(-c2n[nH]c(=O)n2-c2ccc3c(ccn3C)c2)c(O)cc1O
**Result** 5010 to 5700 ng·h/mL

----------
# Protocol Notes: Ganetespib pharmacokinetics in plasma after STA-1474 infusion (LC-MS/MS)
# Type: in vivo, dogs
# Condition Info: dog, plasma, iv, 9.5 mg/kg, STA-9090 in plasma; STA-1474 9.5 mg/kg, 8 h infusion, once weekly; mean, day 1
# Experimental: Plasma samples were collected on day 1 and day 22 of therapy at the specified intervals: before and after dosing at 30, 60, 90, 120, 180, 300 (5 hr), 540 (9 hr), and 1440 (24 hr) minutes relative to the start of dosing. […] Plasma concentrations of ganetespib were determined using a qualified liquid chromatography tandem mass spectrometry (LC-MS/MS) method. […] Quantitation was achieved by MS/MS detection in positive ion mode by multiple reaction monitoring. […]
Measure: Cmax (ng/mL)
Please respond with the number in ng/mL and leave the unit unwritten.

**Query** Please give the documented Cmax of CC(C)c1cc(-c2n[nH]c(=O)n2-c2ccc3c(ccn3C)c2)c(O)cc1O
**Result** 802
